Biological target: T1, recombinant human sc-uPA (human, UniProt P00749 21-431)
T1 construct: 411 amino acid single-chain zymogen expressed in HEK293; the 20-residue signal peptide is not present in the mature protein; also called human single-chain uPA; pro-uPA
Assay: SPR, mAb immobilised
VALUE KIND: Kd (nM)
The figure you give is taken to be in nM; do not add the unit.

Note to self: Kd recorded for rec0266-0000-0010-VH_G96A (antibody, mouse IgG1, V domains shown) VH: DVKLVESGGGLVKPGGSLKLSCVASGFTFSSYTMSWVRQTPEKRLEWVATISGGGSHIYYADSVKGRFTISRDNAKNTLYLQMSSLKSEDTAIYYCTRDARDGSWFAYWGQGTLVTVSA VL: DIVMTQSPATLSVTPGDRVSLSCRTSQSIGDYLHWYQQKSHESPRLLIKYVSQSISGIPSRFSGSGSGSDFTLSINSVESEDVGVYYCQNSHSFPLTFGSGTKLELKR was 1.5

Note to self: Kd recorded for rec0266-0000-0010-VH_G96V (antibody, mouse IgG1, V domains shown) VH: DVKLVESGGGLVKPGGSLKLSCVASGFTFSSYTMSWVRQTPEKRLEWVATISGGGSHIYYADSVKGRFTISRDNAKNTLYLQMSSLKSEDTAIYYCTRDVRDGSWFAYWGQGTLVTVSA VL: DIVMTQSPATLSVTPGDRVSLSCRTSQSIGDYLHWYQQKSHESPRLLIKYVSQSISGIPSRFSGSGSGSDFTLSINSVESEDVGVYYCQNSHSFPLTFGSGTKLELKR was 2.1
